Sourced from patent US6987092B1

The entries below come with measured IC50 values attached.
System: cells of the mammary carcinoma cell line MCF-7
Experiment: Tumor cell growth inhibition, SRB-assay, MCF-7
Format: cell-based
Conditions: 50% growth inhibition, three days incubation in serum-containing medium
Where a name gives a salt, the structure may show the parent alone.

Compound	IC50 / µM
NCC(=O)Nc1ccc2c(c1)C(=C1Nc3ccccc3C1=O)C(=O)N2	3
O=C1Nc2ccccc2C1=C1Nc2ccccc2C1=NOCCN1CCNCC1	9.5
O=C1Nc2ccc(S(=O)(=O)N3CCNCC3)cc2C1=C1Nc2ccccc2C1=O	2
O=C(O)CCON=C1C(=C2C(=O)Nc3ccccc32)Nc2ccccc21 [Example 36, (Sodium Salt)]	16
O=C1Nc2ccc(CP(=O)(O)O)cc2C1=C1Nc2ccccc2C1=O	6.5
O=C1Nc2ccc(CC(=O)N3CCOCC3)cc2C1=C1Nc2ccccc2C1=O	7.5
O=C1Nc2ccccc2C1=C1Nc2ccccc2C1=NOCCNCCO	13.6
O=C1Nc2ccccc2C1=C1Nc2ccccc2C1=NOCCN(CCO)CCO	4.5
Cc1ccc2c(c1)C(=C1Nc3ccccc3C1=NO)C(=O)N2	6
CCc1ccc2c(c1)/C(=C1/Nc3ccccc3C1=O)C(=O)N2	7
O=C1Nc2ccc(CC(=O)N3CCNCC3)cc2C1=C1Nc2ccccc2C1=O	8
CCOC(=O)ON=C1C(=C2C(=O)Nc3ccccc32)Nc2ccccc21	10
